Tested on: MCF7
Assay: HRG-induced Akt activation (dPAkt = log2 pAkt/Akt HRG-stimulated minus log2 pAkt/Akt basal) (log2 ratio difference); higher = stronger HRG-induced Akt(T308) phosphorylation
Conditions: miRNA mimic concentration 10 nM; time after transfection 72 h; heregulin 10 ng/ml; stimulation time 1 h
Readout label: HRG-induced Akt activation (log2)

Construct sequence	System tested	HRG-induced Akt activation (log2)
UGCCUGUCUACACUUGCUGUGC	MCF7	1.34
UGGUGGUUUACAAAGUAAUUCA	MCF7	1.29

HRG-induced Akt activation (log2) in this record for CCUAUUCUUGGUUACUUGCACG : 1.29

HRG-induced Akt activation (log2) in this record for UGUUUUGAUAACAGUAAUGU : 1.44
